system: SNU16; assay: CCK-8 cell proliferation assay; type: cell-based; details: Homo sapiens, SNU-16, 72 h, read-out: antiproliferative IC50, SNU16
MEASURED_PARAMETER: pIC50
Notebook: values listed as pIC50 are -log10 of the concentration (mol/L).

Query: I'd like to know its pIC50. The compound in question is "Cc1ccc(C(=O)Nc2ccc(CN3CCN(C)CC3)c(C(F)(F)F)c2)cc1C#Cc1cnc2cccnn12"
Result: 7.11

* * *

System: Ba/F3‐FGFR1‐V561F
Test: CCK-8 proliferation assay in Ba/F3 stable cells
Type: cell-based
Details: Mus musculus, BaF3; bound stated; read-out: IC50 Ba/F3‐FGFR1‐V561F
Experimental: The Ba/F3 cell lines stably expressing FGFR1, FGFR1‐V561M, FGFR1‐V561F, FGFR1‐K656N, and FGFR1‐K656E were self‐established through electroporation pCDNA3.1‐TEL plasmids using the Amaxa Cell Line Nucleofector Kit V (Lonza, Cologne, Germany). […] Cells were seeded in 96‐well plate in complete medium (1000–6000 cells/well) and cultured for overnight. […] Cell proliferation was analyzed by Cell Counting Kit 8 (CK04, Dojindo Laboratories, Japan) after co‐incubation for a further 72 h. […]
MEASURED_PARAMETER: IC50

Query: Which IC50 is reported for this compound? "CCN1CCN(c2ccc(Nc3cc(N(C)C(=O)Nc4c(Cl)c(OC)cc(OC)c4Cl)ncn3)cc2)CC1"
Result: > 330 nM

* * *

System: A549
Test: CCK-8 cell proliferation assay
Assay type: cell-based
Settings: Homo sapiens, A549, 72 h, read-out: antiproliferative IC50, A549
Experimental: The base medium for MDA‐MB‐453 cell line is DMEM medium (CORNING, USA). All other cell lines were cultured in RPMI‐1640 medium supplemented with 10% FBS, 100 U/ml of penicillin, and […] of streptomycin in 5% CO2 at 37℃. […] Cells were seeded in 96‐well plate in complete medium (1000–6000 cells/well) and cultured for overnight. […] Cell proliferation was analyzed by Cell Counting Kit 8 (CK04, Dojindo Laboratories, Japan) after co‐incubation for a further 72 h. […]
MEASURED_PARAMETER: IC50 (nM)
Quick reminder: number only, in nM, skip the unit.

Query: Looking for the measured IC50 of "Cc1ccc(C(=O)Nc2ccc(CN3CCN(C)CC3)c(C(F)(F)F)c2)cc1C#Cc1cnc2cccnn12" , can you help?
Result: 990

* * *

system: NCI‐H716; assay: CCK-8 cell proliferation assay; assay type: cell-based; conditions: Homo sapiens, NCI-H716, 72 h, read-out: antiproliferative IC50, NCI‐H716
MEASURED_PARAMETER: pIC50
Please report pIC50 as the negative decimal logarithm of the molar concentration, giving only the number.

Query: Lab note: need pIC50 with NCI‐H716 for entry Cc1ccc(C(=O)Nc2ccc(CN3CCN(C)CC3)c(C(F)(F)F)c2)cc1C#Cc1cnc2cccnn12 [Ponatinib] , please look it up.
Result: 7.58
